Listing of entries alongside the reported cell count.
assay: viability loss with induced miR-34 in A549 – imaging, A549 dox-inducible miR-34, nuclei and caspase counts, primary screen (AID 1347080); details: A549 miR-34 inducible, Hoechst nuclei count, 48 h; measured here: total cells without miR-34 induction
MEASURED ATTRIBUTE: cell count

1. CC(C)(C)OC(=O)Nc1ccc(-c2cc(C(=O)NCCCCCCC(=O)NO)no2)cc1    2940
2. N#C/C(=C\c1ccc(O)c(O)c1)C(=O)NCCCCc1ccccc1    7610
3. O=C(CCc1ccc(O)c(O)c1)N[C@@H](CC(=O)OCc1ccccc1)C(=O)OCc1ccccc1    6270
4. N#Cc1cc2c(OCC(O)CN3CCN(C(c4ccccc4)c4ccccc4)CC3)cccc2[nH]1 (stereo not given)    1550
5. CCCCCCCC/C=C\CCCCCCCC(=O)NCCS(=O)(=O)O    6200
6. O=C(Nc1ccc2c(c1)CCN(Cc1ncn[nH]1)C2)c1ccccc1-c1ccc(C(F)(F)F)cc1    7840
7. CCCCN=C(N)NO    5930
8. CCCCCN=c1ccn(Cc2ccccc2)c2ccccc12    1420
9. COc1ccc2c(c1)c(CC(=O)SC[C@H](NC(C)=O)C(=O)OCCCCO[N+](=O)[O-])c(C)n2C(=O)c1ccc(Cl)cc1    5810
10. CCCCC[C@H](O)/C=C/[C@@H]1[C@@H](C/C=C\CCCC(=O)OC)[C@@H](O)C[C@H]1O    6080

###

assay: viability loss with induced miR-34 in A549 – imaging, A549 dox-inducible miR-34, nuclei and caspase counts, primary screen (AID 1347080); details: A549 miR-34 inducible, Hoechst nuclei count, 48 h; measured here: total cells with miR-34 induction; stronger effect = lower value
Labelling: cell count reported below 6000 becomes yes (1); at or above becomes no (0).

1. CN1c2cc3c(cc2N=C(c2ccc(C(=O)O)cc2)c2ccccc21)C(C)(C)CCC3(C)C    no (0)
2. COC(=O)/C=C/c1cccc(N(Cc2ccc(-c3ccc(N(C)C)cc3)cc2)C(=O)C2CCCCC2)c1    no (0)
3. COc1ccc(COc2cc3oc(=O)c4cc(C(C)O)ccc4c3cc2OC)cc1 (centres undefined)    no (0)
4. C=CC[C@@H]1/C=C(\C)C[C@@H](C)C[C@H](OC)[C@H]2O[C@@](O)(C(=O)C(=O)N3CCCC[C@H]3C(=O)O[C@H](/C(C)=C/[C@@H]3CC[C@@H](O)[C@H](OC)C3)[C@H](C)[C@@H](O)CC1=O)[C@H](C)C[C@@H]2OC    yes (1)
5. c1ccc(CNc2nc(NCc3ccccc3)c3ccccc3n2)cc1    yes (1)
6. CCOC(=O)c1ncc2[nH]c3cccc(OC(C)C)c3c2c1C    yes (1)
7. Cc1nc2c(-c3cnc(N)nc3)nc(N3CCOCC3)nc2n1C(C)C    yes (1)
8. O=C(NCCCN1CCCCCC1)C(c1ccccc1)C1CCCCC1 (centres undefined)    no (0)
9. Cc1ccc(C(=O)Nc2ccc(CN3CCN(C)CC3)c(C(F)(F)F)c2)cc1C#Cc1cnc2[nH]ncc2c1    yes (1)
10. N#Cc1c(NC(=O)c2cccc3ccccc23)sc2c1CCCC2    yes (1)
11. O=C(NC1CCNCC1)c1[nH]ncc1NC(=O)c1c(Cl)cccc1Cl    yes (1)
12. CN1C[C@@H]2c3ccccc3Oc3ccc(Cl)cc3[C@H]2C1    no (0)
13. O=C(CCc1ccc(O)c(O)c1)N[C@@H](CC(=O)OCc1ccccc1)C(=O)OCc1ccccc1    no (0)
14. CC1(C)CCC(CN2CCN(c3ccc(C(=O)NS(=O)(=O)c4ccc(NCC5CCOCC5)c([N+](=O)[O-])c4)c(Oc4cnc5[nH]ccc5c4)c3)CC2)=C(c2ccc(Cl)cc2)C1    yes (1)
15. O=P(O)(O)OC1[C@@H](O)[C@H](O)C(O)[C@H](O)[C@@H]1O (some centres undefined)    yes (1)
16. Cc1cnc(Nc2ccc(N3CCN(C)CC3)cc2)nc1Nc1cccc(S(=O)(=O)NC(C)(C)C)c1    yes (1)
17. CCCCCCCC/C=C\CCCCCCCC(=O)c1nc2ncccc2o1    yes (1)
18. CCCCC[C@H](O)/C=C/[C@H]1[C@H](O)CC(=O)[C@@H]1C/C=C/CCCC(=O)O    yes (1)

###

experiment: drug combination growth inhibition, ovarian cancer – cell-based, oncology-focused library, rucaparib conditional, profiling panel (AID 1508598); conditions: patient-derived ovarian cancer cells, CellTiter-Glo viability, 144 h; at 0.00488 µM; OCI-P5x cells; with rucaparib 20 µM; 100% = cells with rucaparib alone
Active and inactive are the calls of the source.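 The calls were made as follows: active = normalized viability below 100% at a tested concentration; inactive = the rest.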
Possible outcomes: 1 (yes) = active, 0 (no) = inactive

1. CC(=O)c1c(C)c2cnc(Nc3ccc(N4CCNCC4)cn3)nc2n(C2CCCC2)c1=O    1 (yes)
2. Cn1cc(CNCC2CCN(c3ncc(C(=O)NO)cn3)CC2)c2ccccc21    1 (yes)
3. COC(=O)Nc1ccc(-c2nc(N3CCOCC3)c3cnn(C4CCN(C(=O)OC)CC4)c3n2)cc1    0 (no)
4. Cc1cc(N2CCOCC2)cc2[nH]c(-c3c(NC[C@@H](O)c4cccc(Cl)c4)cc[nH]c3=O)nc12    0 (no)
5. CC(C)Oc1ccc(C(=O)N[C@H](CNC(=O)CN(C)C)Cc2ccc(-c3cn4cccc([C@H](C)O)c4n3)cc2)cc1Cl    0 (no)
6. CCOc1cc(N2CCC(O)CC2)ccc1Nc1ncc2c(n1)N(C)c1ccccc1C(=O)N2C    1 (yes)
7. O=C(Nc1cn[nH]c1-c1nc2ccc(CN3CCOCC3)cc2[nH]1)NC1CC1    0 (no)
8. CC1(C)CNc2cc(NC(=O)c3cccnc3NCc3ccncc3)ccc21    0 (no)
9. Cn1c(=O)c(F)c(Nc2ccc(I)cc2F)c2c(=O)n(C[C@@H](O)CO)cnc21    1 (yes)
10. Cc1ccc(F)c(NC(=O)Nc2ccc(-c3cccc4[nH]nc(N)c34)cc2)c1    1 (yes)
11. COc1cc2nccc(Oc3ccc(NC(=O)Nc4cc(C)on4)c(Cl)c3)c2cc1OC    1 (yes)
12. CC[C@H](Nc1ncnc2nc[nH]c12)c1nc2cccc(F)c2c(=O)n1-c1ccccc1    1 (yes)
13. COc1cc(Nc2ncc3c(n2)-c2ccc(Cl)cc2C(c2c(F)cccc2OC)=NC3)ccc1C(=O)O    0 (no)
14. CN(C)C/C=C/C(=O)Nc1cc2c(Nc3ccc(F)c(Cl)c3)ncnc2cc1O[C@H]1CCOC1    0 (no)
15. Cc1cnc(-c2ccccc2C(C)C)nc1NCc1ccc(-n2ccnn2)cc1    1 (yes)
16. Cn1cc(-c2ccc3nnc(Sc4ccc5ncccc5c4)n3n2)cn1    0 (no)
17. CNC(=O)c1cc(Oc2ccc(NC(=O)Nc3ccc(Cl)c(C(F)(F)F)c3)c(F)c2)ccn1    0 (no)
18. Cn1cncc1[C@@](N)(c1ccc(Cl)cc1)c1ccc2c(c1)c(-c1cccc(Cl)c1)cc(=O)n2C    0 (no)
19. O=C(O)c1ccc2c(c1)nc(Nc1cccc(Cl)c1)c1ccncc12    1 (yes)
20. CC(/C=C/C(=O)NO)=C\[C@@H](C)C(=O)c1ccc(N(C)C)cc1    1 (yes)
21. O=S(=O)(O)CCSSCCS(=O)(=O)O    0 (no)
22. O=C(CCCCCCC(=O)Nc1ccc([C@H]2O[C@@H](CSc3nc(-c4ccccc4)c(-c4ccccc4)o3)C[C@@H](c3ccc(CO)cc3)O2)cc1)NO    1 (yes)
23. C#CC[C@H](c1nc2cc(Cl)ccc2c(=O)n1Nc1ccccc1)N(CCCN)C(=O)c1cccc(Cl)c1F    0 (no)
24. Cc1ccc([C@@H]2O[C@H](CO)[C@@H](O)[C@H](O)[C@H]2O)cc1Cc1ccc(-c2ccc(F)cc2)s1    0 (no)
25. Cc1c(NC(=O)OC[C@@H]2COCCN2)cn2ncnc(Nc3ccc4c(cnn4Cc4cccc(F)c4)c3)c12    0 (no)
26. C/C(=C\C(=O)Nc1ccccc1C(=O)O)c1ccc2ccccc2c1    0 (no)
27. Cc1cnc(Nc2ccc(OCCN3CCCC3)cc2)nc1Nc1cccc(S(=O)(=O)NC(C)(C)C)c1    0 (no)
28. Nc1ccn([C@@H]2O[C@H](CO)[C@@H](O)C2(F)F)c(=O)n1    1 (yes)
29. COCCOc1nc(-c2ccc(Cl)c(Cl)c2)n(-c2ccc(NC(=O)CCl)cc2)n1    0 (no)
30. CN1CCN(c2nc(C3=C(c4c[nH]c5ccccc45)C(=O)NC3=O)c3ccccc3n2)CC1    0 (no)
31. CCCCCCCCc1ccc(CCC(N)(CO)CO)cc1    1 (yes)
32. Cc1nc(Nc2n[nH]c3c2CN(C(=O)N[C@H](CN(C)C)c2ccccc2)C3(C)C)c2sccc2n1    1 (yes)
33. CCOc1ccn(-c2ccc(F)cc2)c(=O)c1C(=O)Nc1ccc(Oc2ccnc(N)c2Cl)c(F)c1    0 (no)
34. C=C(c1ccc(C(=O)O)cc1)c1cc2c(cc1C)C(C)(C)CCC2(C)C    0 (no)
35. Cc1cc(CS(=O)(=O)c2ccccc2)cc(OCc2ccc(CN3CCC[C@@H]3CO)cc2)c1    1 (yes)
36. CC1(O)CC(c2nc(-c3ccc4ccc(-c5ccccc5)nc4c3)c3c(N)nccn23)C1 (stereo not drawn)    1 (yes)
37. COC(=O)c1ccc2c(C(=Nc3ccc(N(C)C(=O)CN4CCN(C)CC4)cc3)c3ccccc3)c(O)[nH]c2c1    1 (yes)
38. Cc1nc2c(-c3cnc(N)nc3)nc(N3CCOCC3)nc2n1C(C)C    1 (yes)
